- test.target: PI3K-delta (Homo sapiens, UniProt O00329)
- Construct: Millipore 14-604
- Sequence (O00329 whole entry): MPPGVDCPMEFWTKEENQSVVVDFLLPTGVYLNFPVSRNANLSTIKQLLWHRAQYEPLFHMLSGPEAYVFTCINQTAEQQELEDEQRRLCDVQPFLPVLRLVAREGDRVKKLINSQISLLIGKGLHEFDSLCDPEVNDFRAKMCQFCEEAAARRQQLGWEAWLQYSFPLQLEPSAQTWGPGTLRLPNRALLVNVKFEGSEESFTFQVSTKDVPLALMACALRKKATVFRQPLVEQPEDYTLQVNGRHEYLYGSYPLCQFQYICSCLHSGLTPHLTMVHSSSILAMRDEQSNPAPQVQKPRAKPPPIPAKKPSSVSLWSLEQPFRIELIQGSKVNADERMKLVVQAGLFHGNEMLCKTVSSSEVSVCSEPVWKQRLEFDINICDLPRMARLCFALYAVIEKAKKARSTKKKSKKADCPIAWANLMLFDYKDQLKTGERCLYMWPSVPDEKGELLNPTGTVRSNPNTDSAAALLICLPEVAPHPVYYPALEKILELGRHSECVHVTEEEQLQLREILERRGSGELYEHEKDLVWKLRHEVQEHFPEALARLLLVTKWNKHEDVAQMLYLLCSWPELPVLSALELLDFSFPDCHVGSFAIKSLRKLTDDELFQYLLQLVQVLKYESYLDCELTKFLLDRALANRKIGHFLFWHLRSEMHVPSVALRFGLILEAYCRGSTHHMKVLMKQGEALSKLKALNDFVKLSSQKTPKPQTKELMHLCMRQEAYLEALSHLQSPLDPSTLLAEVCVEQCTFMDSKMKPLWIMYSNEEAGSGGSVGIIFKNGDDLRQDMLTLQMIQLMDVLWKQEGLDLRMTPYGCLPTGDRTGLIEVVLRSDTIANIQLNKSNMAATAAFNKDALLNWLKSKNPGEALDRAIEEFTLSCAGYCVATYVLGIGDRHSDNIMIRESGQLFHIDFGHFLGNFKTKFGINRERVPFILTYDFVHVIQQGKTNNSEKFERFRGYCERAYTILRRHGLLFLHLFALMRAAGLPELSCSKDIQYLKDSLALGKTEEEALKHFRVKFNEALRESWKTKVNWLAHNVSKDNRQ
- Sequence (P27986 whole entry partner): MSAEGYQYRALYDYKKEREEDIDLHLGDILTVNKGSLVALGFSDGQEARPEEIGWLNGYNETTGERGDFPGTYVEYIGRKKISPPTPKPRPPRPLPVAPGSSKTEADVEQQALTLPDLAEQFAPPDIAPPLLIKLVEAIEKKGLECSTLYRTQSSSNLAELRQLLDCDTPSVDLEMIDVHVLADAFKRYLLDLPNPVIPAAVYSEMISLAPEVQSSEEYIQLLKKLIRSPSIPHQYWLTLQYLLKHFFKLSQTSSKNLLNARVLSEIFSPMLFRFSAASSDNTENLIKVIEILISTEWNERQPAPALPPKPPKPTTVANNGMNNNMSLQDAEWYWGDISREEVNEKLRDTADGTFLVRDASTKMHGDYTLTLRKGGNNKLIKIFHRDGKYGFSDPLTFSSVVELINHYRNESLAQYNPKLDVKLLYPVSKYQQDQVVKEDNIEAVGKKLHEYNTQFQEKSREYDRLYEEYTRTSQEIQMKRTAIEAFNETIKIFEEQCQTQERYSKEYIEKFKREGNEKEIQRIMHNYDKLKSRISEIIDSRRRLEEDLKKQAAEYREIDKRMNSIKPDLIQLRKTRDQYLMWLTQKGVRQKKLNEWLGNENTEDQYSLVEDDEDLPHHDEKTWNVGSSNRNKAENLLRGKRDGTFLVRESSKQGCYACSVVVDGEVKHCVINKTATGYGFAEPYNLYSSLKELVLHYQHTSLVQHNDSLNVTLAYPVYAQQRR
- test.method.notes: HTRF PI3K biochemical assay, delta isoform
- conditions.used: form screened (neutral or TFA salt) given, read-out: PI3Kdelta IC50
pIC50: −log10 of the molar value.
measure.name: pIC50

Below are worked cases with known answers.
1. CCn1c(-c2cnc(C)nc2)nc2c(NC3CCC(=O)N(CC4CC4)C3)ncnc21 (single isomer, unassigned) | 8.37
2. CCn1c(C(=O)N2CCCC2)nc2c(N[C@H]3CCN(C(=O)C4CC4)C3)ncnc21 | 7.14
3. CCn1c(-c2cnc(C)nc2)nc2c(N[C@H]3CCN(C(=O)c4cnn(C)c4)C3)ncnc21 | 8.38
4. CCn1c(-c2cnc(C)nc2)nc2c(N[C@H]3CCN(C(=O)C4CC4(F)F)C3)ncnc21 (mixture of isomers) | 8.82

a = CCn1c(-c2cnc(C)nc2)nc2c(N[C@H]3CC[C@H](C(=O)N(C)C4CC4)C3)ncnc21
b = CCn1c(-c2cnc(C)nc2)nc2c(N[C@H]3C[C@@H](C(=O)OC)N(C(=O)C4CC4)C3)ncnc21
I'm curious whether a or b has the smaller pIC50 number. Which is it? Could you answer with the label of the item you picked?
b
(b: 7.20, a: 7.89)

----------
- test.target: PI3K-delta (Homo sapiens, UniProt O00329)
- Construct: Millipore 14-604
- test.method.notes: HTRF PI3K biochemical assay, delta isoform
- conditions.used: form screened (neutral or TFA salt) given, read-out: PI3Kdelta IC50
measure.name: IC50 (nM)

a = CCn1c(-c2cnc(C)nc2)nc2c(N[C@H]3CCN(C(=O)C4NC(=O)C4(C)C)C3)ncnc21 (mixture of isomers) [Compound 2-67]
b = CCC(=O)N1CC[C@H](Nc2ncnc3c2nc(C(F)F)n3CC)C1 [Compound 7-13]
c = CCn1c(-c2cnc(C)nc2)nc2c(N[C@H]3CCN(C(=O)CN(C)C)C3)ncnc21 [Compound 2-31]
d = CCn1c(C(F)F)nc2c(N[C@H]3CCN(C(=O)C4CC45CCCC5)C3)ncnc21 (single isomer, unassigned) [Compound 7-20]
e = CCn1c(CCOC)nc2c(N[C@H]3CCN(C(=O)C4CC4)C3)ncnc21 [Compound 7-22]
Order the 5 listed items from lowest to highest according to IC50. Your task in answering is to list the labels in the requested order.
a, c, b, e, d

----------
- test.target: PI3K-delta (Homo sapiens, UniProt O00329)
- Construct: Millipore 14-604
- test.method.notes: HTRF PI3K biochemical assay, delta isoform
- conditions.used: form screened (neutral or TFA salt) given, read-out: PI3Kdelta IC50
pIC50: −log10 of the molar value.
measure.name: pIC50

1) CCn1c(-c2cnc(C)nc2)nc2c(N[C@H]3CCN(C(=O)[C@H]4C[C@H](OC)C4)C3)ncnc21 [Compound 2-38] | 8.77
2) CCn1c(-c2cnc(C)nc2)nc2c(N[C@H]3CCN(C(=O)NC(C)(C)CC(C)(C)C)C3)ncnc21 [Compound 12-25] | 8.85
3) CCn1c(-c2cnc(C)nc2)nc2c(N[C@H]3CCN(C(=O)C4CN(C(C)C)C4)C3)ncnc21 [Compound 2-79] | 7.77

A = CCn1c(-c2ccc(C(F)(F)F)nc2)nc2c(N[C@H]3CCN(C(=O)C4CCCO4)C3)ncnc21 (single isomer, unassigned) [Compound 2-104]
B = CCn1c(-c2cnc(C)nc2)nc2c(NC3CCCC(=O)N(CC4CC4)C3)ncnc21 (single isomer, unassigned) [Compound 14-7]
C = CCn1c(C(F)F)nc2c(N[C@H]3CCN(C(=O)c4ccn(C)n4)C3)ncnc21 [Compound 7-12]
D = CCn1c(-c2cnc(C)nc2)nc2c(N[C@H]3CC[C@@H](C(=O)NC)C3)ncnc21 [Compound 5-7]
Please list the entries, largest pIC50 first. Your task in answering is to list the labels in the requested order.
A, B, C, D

1 = CCn1ncc(-c2nc3c(N[C@H]4CCCN(S(=O)(=O)CC)C4)ncnc3n2C)c1C [Compound 11-1]
2 = CCCn1c(-c2cnc(C)nc2)nc2c(N[C@H]3CCN(C(=O)CC)C3)ncnc21 [Compound 9-2]
3 = CCC(=O)N1CC[C@H](Nc2ncnc3c2nc(C2CC2)n3C)C1 [Compound 7-9]
4 = CCn1c(-c2cnc(C)nc2)nc2c(N[C@H]3CCN(C(=O)N4CCC4C)C3)ncnc21 (mixture of isomers) [Compound 12-3]
5 = CCn1c(-c2cnc(C)nc2)nc2c(N[C@H]3CCN(C(=O)c4cncn4C)C3)ncnc21 [Compound 2-69]
Please list the entries, largest pIC50 first. Your task in answering is to list the labels in the requested order.
4, 5, 1, 2, 3

1 = CCn1c(-c2cnc(C)nc2)nc2c(N[C@H]3CCN(C(=O)C4C5CCNC54)C3)ncnc21 (mixture of isomers) [Compound 2-85]
2 = CCC(=O)N1CC[C@H](Nc2ncnc3c2nc(CC(C)C)n3CC)C1 [Compound 7-2]
3 = CCn1c(C(=O)N[C@@H](C)C2CC2)nc2c(N[C@H]3CCN(C(=O)C4CC4)C3)ncnc21 [Compound 6-12]
Please list the entries, largest pIC50 first. Your task in answering is to list the labels in the requested order.
1, 3, 2

A = CCn1c(-c2cnc(C)nc2)nc2c(N[C@H]3CCN(C(=O)OC)C3)ncnc21 [Compound 13-2]
B = CCn1c(C(=O)Nc2ccccn2)nc2c(N[C@H]3CCN(C(=O)C4CC4)C3)ncnc21 [Compound 6-20]
C = CCn1c(-c2cnc(C)nc2)nc2c(N[C@H]3CCN(c4cccc(OC)n4)C3)ncnc21 [Compound 4-7]
Arrange these 3 compounds in increasing order of pIC50. Your task in answering is to list the labels in the requested order.
B, A, C

1 = CCn1c(-n2cnc(C(F)(F)F)c2)nc2c(N[C@H]3CCN(C(=O)C4CC4)C3)ncnc21 [Compound 8-3]
2 = CCN(c1ncnc2c1nc(-c1cnc(C)nc1)n2CC)[C@H]1CCN(C(=O)C2CC2)C1 [Compound 3-28]
3 = CCn1c(-c2cnc(C)nc2)nc2c(N[C@H]3CC[C@H](C(=O)N4CCC4)C3)ncnc21 [Compound 5-2]
Arrange these 3 compounds in increasing order of pIC50. Your task in answering is to list the labels in the requested order.
3, 1, 2
(3: 7.46, 1: 7.96, 2: 8.17)
